- STUDY SYSTEM: His6-TyrR (Enterobacter cloacae UW5?) (UniProt B2D1S2)
- Sequence: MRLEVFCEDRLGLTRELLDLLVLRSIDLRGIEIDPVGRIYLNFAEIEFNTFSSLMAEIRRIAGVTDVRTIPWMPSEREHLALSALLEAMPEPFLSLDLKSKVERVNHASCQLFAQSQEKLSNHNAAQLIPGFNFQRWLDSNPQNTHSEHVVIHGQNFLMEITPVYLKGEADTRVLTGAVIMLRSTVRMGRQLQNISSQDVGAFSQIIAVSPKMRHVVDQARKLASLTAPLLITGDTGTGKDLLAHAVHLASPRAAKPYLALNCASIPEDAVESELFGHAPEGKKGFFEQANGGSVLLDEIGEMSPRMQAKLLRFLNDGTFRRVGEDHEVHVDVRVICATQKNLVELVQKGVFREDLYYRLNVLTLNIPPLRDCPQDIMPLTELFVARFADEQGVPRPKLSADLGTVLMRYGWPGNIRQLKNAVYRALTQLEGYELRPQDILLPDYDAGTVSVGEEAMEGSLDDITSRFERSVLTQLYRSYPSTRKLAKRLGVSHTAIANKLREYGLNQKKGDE
- ASSAY: EMSA
- COND: 20% glycerol, 250 mM NaCl, 50 mM Tris-Cl pH 7.5, 5 mM MgCl2, 2.5 mM DTT, 2.5 mM EDTA, 0.1 mM ATP, 0.1 mM Trp, Phe or Tyr, 1 ug poly d(I-C), 50 ng DNA, room …
MEASURED QUANTITY: binding

GGTTCGCATAACAGGTGTCCTTCTGACGTTGACCTCACTTTGAGTATTAAAGAAGCGTGATGGCTGTCCAGAATTGGTCGTAAGAAGGGCATGGAAAGAATGCTTTACAAAAAAGGCTGCGCTATGCTCTTTTTTTTCATATAAATATAAACGTATATACTGATTTTTCCTTTCAGCGCCAGAGGGCATCAGAATGGG (double strand) [akr-ipdC weak box mutant] = binds
GGTTCGCATAACAGGTGTCCTTCTGACGTTGACCTCACTTTGAGTATTAAAGAAGCGTGATGGCTGTCCAGAATTGGTCGTAAGAAGGGCATGGAAAGAATGCTTTACAAAAAAGGCTGCGCTATGCTCTTTTTTTTCATGTAAATGTAAACGTATACACTGATTTTTCCTTTCAGCGCCAGAGGGCATCAGAATGGG (double strand) [akr-ipdC intergenic region wild-type] = binds
